# Test Protocol: M. tuberculosis growth inhibition, HTS (AID 449762);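 further: bacterial growth assessed after seven days of incubation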
# Measurement Parameters: M. tuberculosis H37Rv growth inhibition, 7H9 media; at 25 µM; hits give high values
Hit rate of the full screen: of about 330,000 compounds, about 1,900 (0.58%) were called active. Another 4% or so got no clear call; they are omitted. Only a sample is shown. Entries with a potency or affinity are not part of this list.
Provide the recorded inhibition for the entries that follow.

Compound	inhibition
COc1ccc(Br)cc1-c1nc(CCl)cs1	60.4% (inactive)
COc1ccc(Cc2[nH]n3c(=O)c(Cl)c(C)nc3c2-c2ccccc2)cc1	35.3% (inactive)
Cn1c(SCC(=O)NCC2CCCO2)ncc(C(=O)Nc2ccccc2)c1=O (centres undefined)	54.1% (inactive)
COc1cc(/C=C/c2cc[n+](C)cc2)ccc1OCC(=O)Nc1ccccc1	-0.02% (inactive)
Cc1[nH]c2ccccc2c1/C=N/NC(=O)CNC(=O)c1ccco1	1.49% (inactive)
CCOC(=O)C1(CC2CC2)CCN(Cc2cc(Cl)c(O)c(OC)c2)CC1	-1.14% (inactive)
O=C(Nc1cccc(S(=O)(=O)NC2=NCCCCC2)c1)c1cc(-c2ccccc2)nc2ccccc12	4.99% (inactive)
CN(C)c1ccc(C(=O)/C=C/c2cccnc2)cc1	-3.39% (inactive)

Go through the list and state inhibition for each entry.
1. CC(C)(C)c1ccc(C(=O)NCC(=O)NNC(=O)c2ccccc2O)cc1
2. c1ccc(NCCCNc2ccccc2)cc1
3. FC(F)(F)c1cc(N2CCNCC2)c2ccccc2n1
4. CSc1nncc(-c2ccccc2)n1
5. COCCn1cnnc1SCC(=O)Nc1cccc(S(=O)(=O)N(C)c2ccccc2)c1

8.86% (inactive)
2.48% (inactive)
4.5% (inactive)
-0.45% (inactive)
-4.95% (inactive)

# per-item lookup of inhibition; items listed below
1. COc1ccc(CCN2CCCC(CN(C)Cc3cc(OC)c(OC)c(OC)c3)C2)cc1 (centres undefined)
2. O=[N+]([O-])c1ccc(-c2cnc(SCc3ccccc3Cl)[nH]2)cc1
3. COc1ccc(NC(=O)COc2ccc(/C=C/c3cc[n+](C)cc3)cc2OC)cc1

["2.86% (inactive)", "-2.76% (inactive)", "-3.55% (inactive)"]

====

# Test Protocol: M. tuberculosis growth inhibition, HTS (AID 449762);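 further: bacterial growth assessed after seven days of incubation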
# Measurement Parameters: M. tuberculosis H37Rv growth inhibition, 7H9 media; at 25 µM; hits give high values
Hit rate of the full screen: of about 330,000 compounds, about 1,900 (0.58%) were called active. Roughly 4% stayed inconclusive and do not appear here. Only a sample is shown. Results with a measured potency or affinity are listed apart.
Observed Property: inhibition (%)
One number for each entry, in %.

Compound	inhibition / %
CN(C(=O)CSc1nccc(=O)[nH]1)C1CCCCC1	-5.2
O=C(Nc1ccc(Cl)c(S(=O)(=O)Nc2ccccc2Cl)c1)c1cccs1	-2.32
COc1ccc(NC(=O)CSc2nnc(-c3ccccn3)n2N)cc1	8.63

Take each entry in turn and give its inhibition.
1. O=C(NC(=S)Nc1ccc(CN2CCOCC2)cc1)c1cc2ccccc2o1
2. COC(=O)CCN1CCC(c2cc(-c3cccc(C(F)(F)F)c3)n[nH]2)CC1
3. Cc1cc(C)c(NC(=O)CSc2nnc(CN3CCOCC3)n2C)c(C)c1
4. COc1cc(C(=O)Nc2cccc(S(=O)(=O)NCc3ccco3)c2)cc(OC)c1OC
5. COc1ccc(-c2nc(-c3ccncc3)no2)c(OC)c1
6. COc1ccc(NC(=O)C(=S)NC2CCCCC2)cc1
7. Cc1ncc(CSc2nnnn2-c2ccccc2)c(N)n1

68.5
5.38
-5.19
0.68
4.47
8.92
1.43

List inhibition for every entry below, keeping the order given.
1. CCOC(=O)Cn1nnc(-c2ccccc2)n1
2. N/C(=N\OC(=O)c1ccc([N+](=O)[O-])cc1)c1cccnc1
3. FC(F)(F)c1cc(CCN2C(=S)NC[C@@H]2c2ccccc2)cc(C(F)(F)F)c1
4. CC1(C)Cc2c(c(N3CCOCC3)nc3sc4c(NCC5CCCO5)nnnc4c23)CS1 (stereo not given)
5. COc1cc(NC(=O)c2ccnnc2)cc(C(=O)Nc2cccc(C(F)(F)F)c2)c1
6. CCC(Sc1nnc2c3ccccc3n(CC)c2n1)C(=O)Nc1sc2c(c1C#N)CCCC2 (stereo not given)
7. CCS(=O)(=O)c1ccc2c(c1)N(S(C)(=O)=O)CC(C(=O)NC1CC1)O2 (stereo not given)

1. -9.53
2. 8.92
3. -1.12
4. 11.7
5. 42.8
6. 1.09
7. 0.09

Give inhibition for each listed item.
1. Cc1ccccc1OCC(O)Cn1c(N2CCCCC2)nc2c1c(=O)[nH]c(=O)n2C (stereo not given)
2. CC(C)CCC(C)NC(=O)CN1C(=O)NC(C)(c2ccc3ccccc3c2)C1=O (stereo not given)
3. CCOc1ccc2nc(N3CCCC(C(=O)NCCCN4C(C)CCCC4C)C3)sc2c1 (stereo not given)
4. O=C(CCN1CCCC1)Nc1ccccc1
5. Nc1nc(SCc2ccccc2)ns1

1: 6.49; 2: -6.81; 3: 6.54; 4: 22.9; 5: 15

Batch of 4 compounds: report inhibition for each.
1. CCN1C(=NCCc2ccc([N+](=O)[O-])cc2)N[C@@H](c2ccccc2)[C@H](C(=O)OC)[C@H]1C
2. CCOC(=O)Cn1c(-c2ccccc2)cc(SC)c(C#N)c1=O
3. O=C(NC1CC1)C1CCN(C2CCN(C(=O)/C=C/c3cccs3)CC2)CC1
4. c1cc2c(cc1C1CCCCC1)c1c3n2CCN=C3CCC1

1: -8.81; 2: 13.1; 3: -5.63; 4: -6.21

// batch mode: one inhibition value per listed entry
1. CCCCNC(=S)N1CCn2cccc2C1c1cccnc1 (stereo not given)
2. Cc1ccc(Cl)cc1N1CCN(Cc2cc3c(cc2O)CCC3)CC1
3. CC1=CSC2=NS(=O)(=O)CCN12
4. NC(=O)Cn1nc(-c2ccccc2)nc1-c1ccccc1
5. NC(=O)N/N=C/c1ccc2cccc(OCc3ccccc3)c2n1
6. CCN1C(=NCCc2cccnc2)N[C@@H](c2ccccc2)[C@H](C(=O)OC)[C@H]1C
7. Cc1nc(N2CCOCC2)c2oc3ccccc3c2n1
8. Cc1csc(=Nc2ccccc2)n1Cc1ccco1

-0.76
-2.77
-1.32
-2.98
12.6
-0.82
-22.1
11.3

I'm hoping you can list inhibition for every compound here, please.
1. CCN(CC)C(=O)c1sc2nc(Cc3ccccc3)[nH]c(=O)c2c1C
2. CCCCN1C(=O)C(=O)N(c2ccccc2)C1=S
3. COCCn1c(SCc2nnc(-c3ccc(OC)c(OC)c3)o2)nnc1-c1ccncc1

4.02
5.31
5.88

Hey, can you go through the list below and give me inhibition for every item?
1. COc1ccccc1NC(=O)CSc1nc2ccccc2c(=O)n1C
2. Cc1ccc2c(c1)c1c(n2C)C(=O)CCC1
3. O=C(NN(c1ccccc1)c1ccccc1)c1ccc([N+](=O)[O-])o1
4. c1cc2c3c(cccc3c1)NC1(CCCCC1)N2
5. COc1ccc2c3c([nH]c2c1)[C@H]1C[C@H]2[C@H](C[C@@H](O)[C@H](OC)[C@H]2C(=O)O)CN1CC3
6. COc1ccc(C(=O)NNC(=O)c2ccc(S(=O)(=O)N3CCOCC3)cc2)cc1
7. CCN(CC)C(=O)c1sc2nc(-c3ccncc3)[nH]c(=O)c2c1C
8. Cc1cc(C(=O)COc2ccccc2C(N)=O)c(C)n1CC1CCCO1 (stereo not given)

1. 0.03
2. -12
3. 56.9
4. -8.51
5. 1.26
6. 0.01
7. -4.66
8. -7.82
